- systemUnderTest: formaldehyde dehydrogenase (FDH) (Pseudomonas putida)
- Construct: purchased Sigma-Aldrich
- Sequence (P46154 whole entry): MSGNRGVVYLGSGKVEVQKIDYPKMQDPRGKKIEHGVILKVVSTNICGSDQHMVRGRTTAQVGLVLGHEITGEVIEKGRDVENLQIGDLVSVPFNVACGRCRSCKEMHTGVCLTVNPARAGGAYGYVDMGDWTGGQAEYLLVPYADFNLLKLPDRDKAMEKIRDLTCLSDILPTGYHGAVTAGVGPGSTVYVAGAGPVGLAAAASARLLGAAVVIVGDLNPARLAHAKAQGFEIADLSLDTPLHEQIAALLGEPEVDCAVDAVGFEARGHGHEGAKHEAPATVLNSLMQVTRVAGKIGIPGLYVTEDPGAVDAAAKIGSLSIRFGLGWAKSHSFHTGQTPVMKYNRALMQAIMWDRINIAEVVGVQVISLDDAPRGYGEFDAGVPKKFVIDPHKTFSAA
- assayExplanation: FDH coupling enzyme counterscreen
- Format: biochemical
- assaySetup: Table S1; FDH counterscreen
parameterMeasured: qHTS Data: jmjd2e fdh CurveClass

Solved cases (6 shown):
compound: O=c1cnnc(N/N=C/c2ccccn2)[nH]1 [compound 26726276]
parameterMeasured: qHTS Data: jmjd2e fdh CurveClass
readoutValue: Inactive
//
compound: O=C(CN1CCCCCC1)NCC1CCCO1.O=C(O)C(=O)O (stereo not drawn) [compound 24790169]
parameterMeasured: qHTS Data: jmjd2e fdh CurveClass
readoutValue: Inactive
//
compound: O=C(NO)c1ccccc1O [compound 855524]
parameterMeasured: qHTS Data: jmjd2e fdh CurveClass
readoutValue: Poor quality curve
//
compound: CC1=C(C(N)=O)C(c2ccc3c(c2)OCO3)n2nc(-c3cccc(C)c3)nc2N1 (stereo not drawn) [compound 4245376]
parameterMeasured: qHTS Data: jmjd2e fdh CurveClass
readoutValue: Inactive
//
compound: Oc1ccccc1O [compound 50105556]
parameterMeasured: qHTS Data: jmjd2e fdh CurveClass
readoutValue: Inactive
//
compound: CCOc1c(Cl)cc(CNc2ccc(N3CCCC3)cc2)cc1OC [compound 24795526]
parameterMeasured: qHTS Data: jmjd2e fdh CurveClass
readoutValue: Inactive

Request: Fill in: qHTS Data: jmjd2e fdh CurveClass of O=c1c2ccccc2sn1-c1nccs1 [compound 24830882] is ___
Result: Inactive

Request: Name the reported qHTS Data: jmjd2e fdh CurveClass value associated with the compound COCCN1C=C2C(=O)C(C)(OC(=O)CCc3ccccc3)C(=O)C=C2C=C1c1ccc(C#N)cc1 (stereo not drawn) [compound 26725518]
Result: Poor quality curve

Request: // returns reported qHTS Data: jmjd2e fdh CurveClass for input COC(=O)c1ccc(=O)c2nc3/c(=C/O)c(O)cc(=O)c3[nH]c12 [compound 26732584]
Result: Inactive

Origin of the recorded values: paper PMC2990756
